This section presents molecules with their documented IC50 cAMP values.
# system.under.test: glucagon receptor (GCGR) overexpressed CHO-K1 cells or human primary hepatocytes (Homo sapiens, UniProt P47871)
# Construct: expressed in transfected cells; host or cells: GCGR overexpressed CHO-K1 cells or human primary hepatocytes (endogenous receptor)
# Sequence (P47871 26-477): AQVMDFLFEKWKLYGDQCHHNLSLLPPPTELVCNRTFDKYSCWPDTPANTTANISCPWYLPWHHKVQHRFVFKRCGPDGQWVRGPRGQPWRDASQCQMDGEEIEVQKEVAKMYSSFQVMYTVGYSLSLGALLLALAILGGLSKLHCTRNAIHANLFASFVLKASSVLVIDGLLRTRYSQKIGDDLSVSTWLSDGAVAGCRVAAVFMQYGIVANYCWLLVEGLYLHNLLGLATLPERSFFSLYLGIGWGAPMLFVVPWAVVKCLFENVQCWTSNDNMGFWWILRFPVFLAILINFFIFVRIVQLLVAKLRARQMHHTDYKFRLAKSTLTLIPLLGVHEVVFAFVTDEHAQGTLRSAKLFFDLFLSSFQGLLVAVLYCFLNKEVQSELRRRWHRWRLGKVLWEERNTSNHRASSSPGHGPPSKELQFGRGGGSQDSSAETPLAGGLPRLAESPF
# assay.procedure: Glucagon cAMP inhibition assay (Cisbio cAMP Dynamic 2 HTRF)
# Assay type: cell-based
Entry rule: numbers only, all in µM.

C[C@@H](Cc1ccc(-c2ccc(C(F)(F)F)cc2)cc1)Nc1ccc(C(=O)NCCC(=O)O)cc1
2.719

Now for another entry.
## Input Note down IC50 cAMP recorded for `CCCC[C@@H](Cc1ccc(-c2cc3ccccc3o2)cc1)Nc1ccc(C(=O)NCCC(=O)O)cc1`
## Output 0.2599
